Below: a set of entries, each annotated with reported MBEC.
# System: Escherichia coli ATCC 10536
# Test: Minimum biofilm eradication assay
# Type: cell-based
Quick note: give the figure in µg/mL, leave out the unit.

Req: Please look up its MBEC: COc1cc(NC(C)CCCNC(=O)NC(CC(C)C)C(=O)NC(c2ccccc2)c2ccccc2)c2ncccc2c1 (stereo not shown)
Resp: 6.25

----------
# Tested on: Enterococcus faecalis ATCC 29212
# Test: Minimum biofilm eradication assay
# Assay type: cell-based
Observation Type: MBEC

# Compound, MBEC
data = [
    ("COc1cc(NC(C)CCCNC(=O)NC(C(=O)N(C)C(c2ccccc2)c2ccccc2)c2ccccc2)c2ncccc2c1 (stereo not drawn)", ">100 µg/mL"),
    ("COc1cc(NC(C)CCCNC(=O)NC(C(=O)NC(c2ccccc2)c2ccccc2)c2ccc(Cl)cc2)c2ncccc2c1 (stereo not drawn)", ">100 µg/mL"),
]

Please turn your attention to the following entry.
Req: Please look up its MBEC: COc1cc(NC(C)CCCN)c2ncccc2c1 (stereo not drawn) [PQ, reference compound]
Resp: >100 µg/mL

----------
Below: a set of entries, each annotated with reported MIC.
# Test system: Staphylococcus aureus ATCC 6538
Quick note: give the figure in µg/mL, leave out the unit.

# Compound, MIC / µg/mL
data = [
    ("COc1cc(NC(C)CCCNC(=O)NC(CC(C)C)C(=O)NC(c2ccccc2)c2ccccc2)c2ncccc2c1 (stereo not shown) [Compound 5a]", 12.5),
]

Please turn your attention to the following entry.
Req: For Staphylococcus aureus ATCC 6538, provide MIC of COc1cc(NC(C)CCCNC(=O)NC(C(=O)NC(c2ccccc2)c2ccccc2)c2ccc(Cl)cc2)c2ncccc2c1 (stereo not shown) [Compound 5d] please.
Resp: 25

----------
# Tested on: Staphylococcus aureus ATCC 25213
# Test: Minimum biofilm eradication assay
# Format: cell-based
Below: a set of entries, each annotated with reported MBEC.

// solved cases for MBEC follow
# Molecule, Observation Type, Data Value
measured = [
    ("COc1cc(NC(C)CCCNC(=O)NC(C(=O)NC(c2ccccc2)c2ccc(Cl)cc2)c2ccc(Cl)cc2)c2ncccc2c1 (stereo not shown)", "MBEC", ">100 µg/mL"),
    ("COc1cc(NC(C)CCCN)c2ncccc2c1 (stereo not shown) [PQ, reference compound]", "MBEC", ">100 µg/mL"),
    ("COc1cc(NC(C)CCCNC(=O)NC(C(=O)NC(c2ccccc2)c2ccccc2)c2ccc(Cl)cc2)c2ncccc2c1 (stereo not shown)", "MBEC", "25 µg/mL"),
]

Req: Please look up its MBEC: COc1cc(NC(C)CCCNC(=O)NC(CC(C)C)C(=O)NC(c2ccccc2)c2ccccc2)c2ncccc2c1 (stereo not shown)
Resp: 25 µg/mL

Req: Please look up its MBEC: COc1cc(NC(C)CCCNC(=O)NC(C(=O)NC(c2ccccc2)c2ccc(Cl)cc2)c2ccccc2)c2ncccc2c1 (stereo not shown)
Resp: >100 µg/mL

Req: Please look up its MBEC: COc1ccc(C(=NNC(=O)C(NC(=O)NCCCC(C)Nc2cc(OC)cc3cccnc23)c2ccc(Cl)cc2)c2ccccc2)cc1 (stereo not shown)
Resp: >100 µg/mL

Req: Please look up its MBEC: COc1cc(NC(C)CCCNC(=O)NC(C(=O)N(C)C(c2ccccc2)c2ccccc2)c2ccccc2)c2ncccc2c1 (stereo not shown)
Resp: >100 µg/mL

Data provenance: paper PMC6021035
